Cited source: ChEMBL document CHEMBL1132621

Species on record: Mus musculus
Test: ED50 measured by hyperalgesia assay
Assay type: functional
OBSERVABLE: ED40 (mg/kg)
A number alone suffices; assume mg/kg.

The examples below pair each entry with its known result.
stdin: Please look up its ED40: COc1ccc2c(c1)c(CC(=O)O)c(C)n2C(=O)c1ccc(Cl)cc1 [INDOMETHACIN]
stdout: 0.6

stdin: Please look up its ED40: CS(=O)(=O)c1ccc(-n2nc(C(F)(F)F)cc2-c2ccc(F)cc2)cc1 [SC-58125]
stdout: 0.3

stdin: Please look up its ED40: CS(=O)(=O)Nc1ccc([N+](=O)[O-])cc1OC1CCCCC1 [NS-398]
stdout: 7.4

stdin: Please look up its ED40: "CONC1=NC(=O)/C(=C/c2cc(C(C)(C)C)c(O)c(C(C)(C)C)c2)S1.C[N+](C)(C)CC[O-]"
stdout: 0.1

Further cases:
stdin: Please look up its ED40: "CON(C)C1=NC(=O)/C(=C/c2cc(C(C)(C)C)c(O)c(C(C)(C)C)c2)S1"
stdout: 0.06
